METHOD: Oral bioavailability was determined in rats at a single dose of 10 mg/kg i.v. and p.o.
Assay type: ADME, organism-based
CONDITION PARAMETERS: rat, in vivo
ASSAY METRIC: bioavailability (%)

INSERT INTO assay_data (smiles_code, assay_value) VALUES
  ('Cc1cc(Nc2ncc(C(=O)Nc3c(C)cccc3Cl)s2)nc(C)n1', 65);

* * *

METHOD: Maximum plasma concentration was determined in rats at a single dose of 10 mg/kg i.v. and p.o.
Type: ADME, organism-based
Parameters: dose 10 mg/kg, route oral
CONDITION PARAMETERS: rat, po
ASSAY METRIC: Cmax

INSERT INTO measurements (smiles_code, assay_value) VALUES
  ('Cc1cc(Nc2ncc(C(=O)Nc3c(C)cccc3Cl)s2)nc(C)n1', '2000 nM');
